// data source = PubChem BioAssay (NCI)

# System: NCI/ADR-RES ovarian
# Method Description: NCI-60 one-dose screen, 48 h
# Run Conditions: 10 µM unless noted
Compounds without any hit were thinned out: in the full panel of roughly 83,000, 20% have a hit. Activity calls are given as the source filed them. How the source made its calls: active means growth percent below 10; inactive means the rest.
Classes used: active, inactive

Molecule | Assayed Target | Cat
O=C(CCl)c1ccc([N+](=O)[O-])o1 | NCI/ADR-RES ovarian | active
CC1CCCC(C[N+](C)(C)C)C1=O (stereo not drawn) | NCI/ADR-RES ovarian | inactive
CC[CH2][Sn]([Cl])([Cl])[CH2]CC | NCI/ADR-RES ovarian | inactive
COC[C@@H]1C[C@@]2(C)[C@@H](CC[C@@H]3[C@@H]2CC[C@@]2(C)[C@H]3CC[C@]2(C)O)CC1=O | NCI/ADR-RES ovarian | inactive
CCC(C)(C)[C@H](NC(=O)[C@H]1CCCCN1C)C(=O)N(C)[C@H](C[C@@H](OC(C)=O)c1nc(C(=O)N[C@@H](Cc2ccccc2)C[C@H](C)C(=O)O)cs1)C(C)C | NCI/ADR-RES ovarian | inactive
CC(C)CCC(=O)O[C@H]1CC[C@H]2[C@@H]3CCC4=CC(=O)CC[C@]4(C)[C@H]3CC[C@]12C | NCI/ADR-RES ovarian | inactive
CC[C@H](C)[C@@H]1OC(=O)C(C)(C)[C@H](O)[C@H](Cc2ccccc2)OC(=O)[C@H](C(C)C)OC(=O)[C@@H](NC(=O)c2cccc(NC=O)c2O)[C@@H](C)OC1=O | NCI/ADR-RES ovarian | inactive
Cc1ccc(S(=O)(=O)C(Cl)(Cl)Cl)cc1 | NCI/ADR-RES ovarian | inactive

###

# Test system: MOLT-4 leukemia
# Method Description: NCI-60 one-dose screen, 48 h
# Run Conditions: 10 µM unless noted
The panel holds about 83,000 compounds, 20% with a hit somewhere; the sample as a whole holds those more often. The source made the active and inactive calls. Rule for the calls: active = growth percent below 10; inactive = the rest.
Outcome codes: YES = active, NO = inactive

Molecule | Assayed Target | Cat
COC(=O)C1OC(Oc2ccc(N(CCCl)CCCl)cc2)C(OC(C)=O)C(OC(C)=O)C1OC(C)=O (stereo not drawn) | MOLT-4 leukemia | NO
COC(=O)[C@@H](C)C[C@H](Cc1ccccc1)NC(=O)c1csc([C@@H](C[C@H](C(C)C)N(C)C(=O)C2(NC(=O)[C@H]3CCCCN3C)CC2)OC(C)=O)n1 | MOLT-4 leukemia | YES
Cc1ccc(Nc2nc3c(s2)C2=CC[C@@H]4[C@H](CC[C@]5(C)C(=O)CC[C@@H]45)[C@@]2(C)CC3)cc1 | MOLT-4 leukemia | NO
O=[N+]([O-])c1cc(I)cc([N+](=O)[O-])c1 | MOLT-4 leukemia | NO
CC(=O)OC1C(OC/C2=C/C3[C@@H](C(C)C)CC=C(C)[C@@H]3CC(OC(=O)/C=C/c3cn(C)cn3)[C@]3(C)C=C[C@@]2(O)O3)OCC(O)C1O (stereo partly drawn) | MOLT-4 leukemia | NO
COC1OC(CO)C(O)C(O)[CH]1[Hg][O]C(C)=O (stereo not drawn) | MOLT-4 leukemia | NO
COC(=O)[C@@H](C)C[C@H](Cc1ccccc1)NC(=O)c1nc([C@@H](C[C@H](C(C)C)N(C)C(=O)[C@@H](NC(=O)[C@H]2CCCN2C)C(C)C)OC(C)=O)sc1C | MOLT-4 leukemia | NO
COC(=O)[C@@H](C)C[C@H](Cc1ccccc1)NC(=O)c1csc([C@@H](C[C@H](C(C)C)N(C)C(=O)[C@@H](NC(=O)[C@H]2CCCCN2C)c2ccc(F)cc2)OC(C)=O)n1 | MOLT-4 leukemia | YES
COc1ccc([As]=[As]c2ccc(OC)c(NCS(=O)(=O)O)c2)cc1NCS(=O)(=O)O (stereo not drawn) | MOLT-4 leukemia | YES
[Cl][Hg][c]1cc[c]([Hg][Cl])o1 | MOLT-4 leukemia | NO
Nc1ccc2c(c1)Cc1cc(Br)ccc1-2 | MOLT-4 leukemia | NO
Nc1c(F)cc(-c2nc3cc(F)ccc3[se]2)cc1F | MOLT-4 leukemia | NO
CNC(=O)Oc1ccc(N(C)C)cc1C(C)C | MOLT-4 leukemia | NO
N#CC1(c2ccccc2)CCN(Cc2ccccc2)CC1 | MOLT-4 leukemia | NO
CCOC(=S)S[C@H]1C[C@@H]2[C@H](CC[C@]3(C)C(=O)CC[C@@H]23)[C@@]2(C)CCC(=O)C=C12 | MOLT-4 leukemia | NO
Oc1c(O)c(Cl)c(Cl)c(Cl)c1Cl | MOLT-4 leukemia | NO
OCCNC(Cc1ccccc1)c1ccc2c(c1)OCO2 (stereo not drawn) | MOLT-4 leukemia | NO
C[C@@]12CC[C@@H](O)C[C@@H]1CC[C@H]1[C@H]2CC[C@@]2(C)[C@H](c3ccc(=O)oc3)CC[C@@]12O | MOLT-4 leukemia | YES
